Listed below: isoTOP-ABPP reactivity ratio, Q14790_C360 values for each entry.
target: CASP8 C360 (Q14790) (Homo sapiens, UniProt Q14790); experiment: Competitive isoTOP-ABPP, cell lysates; type: binding; conditions: 500 μm, in-vitro_ramos
Sequence (Q14790 whole entry): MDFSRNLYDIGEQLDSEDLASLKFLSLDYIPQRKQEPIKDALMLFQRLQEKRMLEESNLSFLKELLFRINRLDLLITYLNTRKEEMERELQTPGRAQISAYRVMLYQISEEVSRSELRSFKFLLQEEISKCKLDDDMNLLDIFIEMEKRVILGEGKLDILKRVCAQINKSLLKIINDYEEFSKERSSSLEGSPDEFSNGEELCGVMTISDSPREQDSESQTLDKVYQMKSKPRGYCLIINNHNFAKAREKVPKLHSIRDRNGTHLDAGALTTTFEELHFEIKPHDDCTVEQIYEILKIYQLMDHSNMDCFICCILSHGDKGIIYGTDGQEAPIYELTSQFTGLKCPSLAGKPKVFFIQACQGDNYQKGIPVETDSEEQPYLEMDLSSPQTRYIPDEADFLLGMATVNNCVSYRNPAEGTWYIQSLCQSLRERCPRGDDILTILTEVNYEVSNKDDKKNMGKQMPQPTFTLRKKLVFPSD
Answer using only a numeral; do not append any unit.

A selection of reference data follows.
Cc1ccc(C=C(C#N)C(=O)NCCN2CCOCC2)cc1 : 0.8
CCN(CC)c1ccc(S(N)(=O)=O)cc1NC(=O)CCl : 5.2
C=CC(=O)Nc1cc(F)c(N2CCN(C(=O)OC(C)(C)C)CC2)c(F)c1 : 4.1

What measured isoTOP-ABPP reactivity ratio, Q14790_C360 goes with O=C(CCl)Nc1ccccc1C1CCCCCC1 ?
1.3

What measured isoTOP-ABPP reactivity ratio, Q14790_C360 goes with C=CC(=O)N1CCC(c2noc3ccc(F)cc23)CC1 ?
1.0
